- assay_details: COV-362 Cancer Cell Toxicity qHTS against the NCATS CANVASS Library (AID 1347352)
- protocol_conditions: COV-362 viability, CellTiter-Glo luminescence, 72 h; series mostly up to 38.3 µM
Results filed as inconclusive are left out. Activity calls are given as the source filed them. The call rests on the fitted dose curve; in most records, active means well fitted cell-killing curve with a large enough effect; inconclusive means small, poorly fitted or top-dose-only effect; inactive means flat fitted curve, though single readings scatter. Bridge positions count the residues as written; N and C are the ends. Square brackets hold non-standard residues; d marks the D form. Side chains are listed from the residue outwards. Peptide text beside a SMILES is read from it. * marks the point of attachment. Phg(4-OMe) = COc1ccc([C@H](N)C(=O)O)cc1; d(aIle) = CC[C@H](C)[C@@H](N)C(=O)O; d(aThr) = C[C@@H](O)[C@@H](N)C(=O)O; NMeF = CN[C@@H](Cc1ccccc1)C(=O)O; Isobutyryl = CC(C)C(=O)*
Write down one outcome, taken from 1 = active, -1 = inactive

>  <molecule>
COc1ccc([C@@H]2c3cc4c(cc3C(=O)[C@H](C)C2C)OCO4)cc1OC (stereo not given in full)

>  <label_value>
-1

$$$$
>  <molecule>
CC(=O)Oc1cc2c(c(OC(C)=O)c1C1CCc3cc(Cl)c(Cl)n31)C(=O)n1c-2cc(Cl)c1Cl (stereo not given)

>  <label_value>
1

$$$$
>  <molecule>
C/C(=C\[C@@H](C)CC/C=C/CC/C=C/C(=O)O)[C@H](O)[C@H](C)C(=O)CCCC1CC(=O)NC(=O)C1

>  <label_value>
-1

$$$$
>  <molecule>
C=C1CC[C@@H](O[C@H]2C[C@@](O)([C@H](C)NC(=O)c3[nH]c(C)c(Cl)c3Cl)[C@H](O)[C@@H](C)O2)[C@@H]2C=C[C@H](C)C(/C(O)=C3/C(=O)[C@H](C(C)C)N([C@@H]4O[C@H](C)[C@H](OC(N)=O)[C@H](OC(C)=O)[C@@H]4OC)C3=O)[C@@H]12 (stereo not given in full)

>  <label_value>
-1

$$$$
>  <molecule>
CC(C)=CCC[C@]12c3cc4c(cc3CC[C@@]1(C)[C@H](C)CC[C@@H]2O)[nH]c1ccccc14

>  <label_value>
-1

$$$$
>  <molecule>
C=C(Cl)[C@](Cl)(CBr)CC[C@@H](Br)C(C)(C)Cl

>  <label_value>
-1

$$$$

# outcome recorded in this test, key = C/C=C(/CO)C(=O)O[C@@H]1[C@H](O)[C@@H](C(=O)OC)O[C@@H]2C[C@H]3OC(n4cnc5c(N)ncnc54)[C@H](OC)[C@H]3O[C@@]12O (stereo not given in full)
-1

Test call, this molecule: CCC(=O)CCCCC[C@@H]1NC(=O)[C@H]2CCCCN2C(=O)[C@H](C(C)C)NC(=O)[C@H](Cc2cn(OC)c3ccccc23)NC1=O
1

Can you look up the reported call for O=C1c2c(O)cc(O)cc2OC(c2ccc(O)cc2)C1O (stereo not given) for me?
-1

Which outcome was assigned to C/C(=C\[C@@H](C)CC/C=C/CC/C=C/C(=O)O)[C@@H](O)[C@H](C)C(=O)CCCC1CC(=O)NC(=O)C1 in this test?
-1

Lab log entry: COc1cc2c(c(O)c1O)C(=O)c1c(coc1C)C2=O — outcome as called in the assay?
1

// outcome(item) with item = CN1CC[C@@]23c4ccccc4N[C@@H]1[C@@]21CCN(C)[C@@H]3Nc2ccccc21
-1

Lab log entry: C=C[C@]1(C)CC[C@@H]([C@H](C)C(=O)CC=C(C)C)O1 — outcome as called in the assay?
-1

Short answer needed: outcome of this test for CC[C@H](C)[C@H]1NC(=O)[C@@H](NC(=O)C(C)C)[C@@H](C)OC(=O)[C@H](COC(=O)CNC(C)=O)NC(=O)[C@@H]([C@@H](C)O)NC(=O)[C@H](Cc2ccccc2)N(C)C(=O)[C@H](c2ccc(OC)cc2)NC1=O (Isobutyryl-T[d(aIle)][Phg(4-OMe)][NMeF][d(aThr)]S([Gly-Ac]); ester 1-C) ?
-1

Outcome logged for C=C[C@](Cl)(CBr)CCC=C(C)C in this assay:
-1
